System: A549 cells
Experiment: Competition cell experiment: uptake of tracer 4R/S-[F-18]F-L-glutamic acid in presence of competitor
Format: cell-based, human
Settings: competitor 1 mM, tracer 4R/S-[F-18]F-L-glutamic acid
assay_endpoint: inhibition of tracer uptake (competition)

> print(dat)
                                   compound  test.target  endpoint.result
1         N[C@@H](C[C@H](CCCF)C(=O)O)C(=O)O   A549 cells            > 94%
2  N[C@@H](C[C@H](O)C(=O)O)C(=O)O [(4S)-hydroxy-L-Glu]   A549 cells              87%
3             C[C@H](C[C@H](N)C(=O)O)C(=O)O   A549 cells              64%
4            C[C@@H](C[C@H](N)C(=O)O)C(=O)O   A549 cells              92%
5                   N[C@@H](CCC(=O)O)C(=O)O   A549 cells              87%

Now examine the next entry.
Name the recorded inhibition of tracer uptake (competition) for N[C@@H](C[C@@H](O)C(=O)O)C(=O)O [(4R)-hydroxy-L-Glu] .
70%
